assay-procedure: signal artefacts in PPARgamma/SRC-3 readout – biochemical, TR-FRET ratio, artefact control for PPARgamma SRC-3 recruitment agonists (AID 1048)
condition-description: TR-FRET artefact counter-screen, PPARgamma/SRC-3 format; at 8 µM; stronger effect = higher value
Screen size: about 99,000 compounds; about 390 (0.39%) were called active. The entries come from a sample that favours actives as a whole.
TR-FRET ratio values for the molecules below.
The answer should be a number; do not append a unit.

Illustrative cases are given below, each with its answer.
# molecule, TR-FRET ratio
data = [
    ("COC(=O)c1ccc(C(=O)OC)c(NC(=S)N2CCN(c3ccc(F)cc3)CC2)c1", 1500),
    ("Cc1cc(C(=O)CC#N)c(C)n1-c1c(C)n(C)n(-c2ccccc2)c1=O", 1450),
    ("CC(C)N(C(=O)Cn1cc(SCC(=O)N2CCCC2)c2ccccc21)C(C)C", 1440),
]

Query: TR-FRET ratio; subject: CC(C)N1CCC(NC(=O)Nc2ccccc2)CC1
1620

Value lookup for TR-FRET ratio; key = CC1Cc2ccccc2N1C(=O)CSc1nnc(-c2ccc(S(=O)(=O)N3CCCC3)cc2)n1C (stereo not given)
1610

TR-FRET ratio lookup needed for CN(c1ccccc1)c1nc(N)c([N+](=O)[O-])c(NCc2ccco2)n1 , thanks.
1700

Origin of values: PubChem BioAssay AID1048
